These data points were gathered from patent US20110064751A1.

pKd values for the binders below.
Target: T1, Murine FAP ectodomain + poly-lys-tag + his6-tag (murine, UniProt P97321 27-761)
T1 construct: also called mu FAP
Experiment: SPR (ProteOn XPR36), purified Fab, monovalent binding
As a rule, pKd stands for the negative log10 of the concentration, concentration in M.

Some binders with recorded pKd:
{"columns": ["BINDER", "pKd"],
 "data": [
  ["29B11 Fab (Fab, V domains shown, also called clone 29B11) VH: EVQLLESGGGLVQPGGSLRLSCAASGFTFSSYAMSWVRQAPGKGLEWVSAIIGSGGITYYADSVKGRFTISRDNSKNTLYLQMNSLRAEDTAVYYCAKGWFGGFNYWGQGTLVTVSS VL: EIVLTQSPGTLSLSPGERATLSCRASQSVTSSYLAWYQQKPGQAPRLLINVGSRRATGIPDRFSGSGSGTDFTLTISRLEPEDFAVYYCQQGIMLPPTFGQGTKVEIK", 9.36],
  ["22A3 Fab (Fab, V domains shown, also called clone 22A3) VH: EVQLLESGGGLVQPGGSLRLSCAASGFTFSSYAMSWVRQAPGKGLEWVSAIIGSGSITYYADSVKGRFTISRDNSKNTLYLQMNSLRAEDTAVYYCAKGWFGGFNYWGQGTLVTVSS VL: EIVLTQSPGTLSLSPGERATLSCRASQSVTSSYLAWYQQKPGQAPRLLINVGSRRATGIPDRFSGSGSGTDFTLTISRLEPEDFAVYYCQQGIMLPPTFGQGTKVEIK", 9.18],
  ["28H1 Fab (Fab, V domains shown, also called clone 28H1) VH: EVQLLESGGGLVQPGGSLRLSCAASGFTFSSHAMSWVRQAPGKGLEWVSAIWASGEQYYADSVKGRFTISRDNSKNTLYLQMNSLRAEDTAVYYCAKGWLGNFDYWGQGTLVTVSS VL: EIVLTQSPGTLSLSPGERATLSCRASQSVSRSYLAWYQQKPGQAPRLLIIGASTRATGIPDRFSGSGSGTDFTLTISRLEPEDFAVYYCQQGQVIPPTFGQGTKVEIK", 11.05]
]}

[ask] Please give the measured pKd for this binder: O3C9 Fab (Fab, V domains shown, also called clone O3C9) VH: EVQLLESGGGLVQPGGSLRLSCAASGFTFSSFAMSWVRQSPGKGLEWVSAIIGSGSNTYYADSVKGRFTISRDNSKNTLYLQMNSLRAEDTAVYYCAKGWFGGFNYWGQGTLVTVSS VL: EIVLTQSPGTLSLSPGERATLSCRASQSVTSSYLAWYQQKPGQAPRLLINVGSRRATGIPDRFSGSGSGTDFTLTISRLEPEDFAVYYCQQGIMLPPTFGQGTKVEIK
[reply] 8.43

[ask] // query: 23C10 Fab (Fab, V domains shown, also called clone 23C10) VH: EVQLLESGGGLVQPGGSLRLSCAASGFTFSSSAMSWVRQAPGKGLEWVSAISTNGNYTYYADSVKGRFTISRDNSKNTLYLQMNSLRAEDTAVYYCAKGWLGNFDYWGQGTLVTVSS VL: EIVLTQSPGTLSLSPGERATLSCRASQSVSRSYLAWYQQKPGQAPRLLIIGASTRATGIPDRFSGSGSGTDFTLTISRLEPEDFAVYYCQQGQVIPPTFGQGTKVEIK
[reply] 9.90
